assay: Binding affinity at CCR was determined by displacement of [125I]- alpha-BgT from Torpedo californica electroplax; design: species or system Tetronarce californica
pKi: −log10 of the molar value.
ENDPOINT: pKi

                               compound  qualifying_sign  numeric_result
0  c1cncc([C@@H]2CCCN2)c1 [NORNICOTINE]                =            4.96
1                 c1cncc([C@H]2CCCN2)c1                =            6.52
2                Cc1cc([C@@H]2CCCN2)on1                <            4.70
3                 Cc1cc([C@H]2CCCN2)on1                =            5.47

====

test: Binding affinity at CCR was determined by displacement of [125I]- alpha-BgT from rat brain; format: tissue-based
pKi: −log10 of the molar value.
ENDPOINT: pKi

In [3]: df
Out[3]:
          smiles_notation  result
0  Cc1cc([C@@H]2CCCN2)on1  < 4.70
1   Cc1cc([C@H]2CCCN2)on1  < 4.70

====

target: Muscarinic acetylcholine receptor (Rattus norvegicus); experiment: Binding affinity at muscarinic receptor was determined by displacement of [3H]OXO-M from rat brain
ENDPOINT: Ki (µM)

          smiles_notation  qualifying_sign  numeric_result
0   Cc1cc([C@H]2CCCN2)on1                =               8
1  Cc1cc([C@@H]2CCCN2)on1                >              20

====

assay: Binding affinity at CCR was determined by displacement of [3H]cytisine from rat brain; assay type: tissue-based
pKi: −log10 of the molar value.
ENDPOINT: pKi

In [3]: df
Out[3]:
          smiles_notation  numeric_result
0  Cc1cc([C@H]2CCCN2C)on1            7.36
1  Cc1cc([C@@H]2CCCN2)on1            6.48
2   Cc1cc([C@H]2CCCN2)on1            8.13

====

assay: Binding affinity at CCR was determined by displacement of [3H]nicotine from rat brain; assay type: tissue-based
Reported Ki values for a set of compounds
ENDPOINT: Ki (nM)

In [3]: df
Out[3]:
          smiles_notation  endpoint  numeric_result
0  c1cncc([C@@H]2CCCN2)c1        Ki              56
1    CN1CCC[C@H]1c1cccnc1        Ki             1.4
2   c1cncc([C@H]2CCCN2)c1        Ki              41
3   CN1CCC[C@@H]1c1cccnc1        Ki              32
